Assay: MTS cytotoxicity assay
Format: cell-based
Settings: human, HepDES19 cells
Experimental: HepDES19 cells were incubated on collagen-coated plates at 37 °C with 5% CO2 and saturating humidity in Dulbecco’s modified Eagle’s medium (DMEM/F12) (Cytiva Life Sciences, Marlborough, MA, USA) supplemented with 10% fetal bovine serum (FBS), penicillin (100 IU/mL), and streptomycin (100 µg/mL). […] Cell viability was assessed using the CellTiter 96^TM Aqueous Non-Radioactive Cell Proliferation assay (MTS) (Promega, Madison, WI, USA) as described previously. […]
Field: CC50 at 72 h. Provide a value for each of the compounds that follow.
Mention the unit after the number when you answer.

q: Report CC50 at 72 h for COC(=O)c1ccc(C(C)ON=C(C)c2c(C)cc(=O)n(O)c2O)cc1 (centres unmarked) please.
a: 96 µM

q: What CC50 at 72 h value was documented for this compound, COc1cccc(CON=C(C)c2c(C)cc(=O)n(O)c2O)c1 ?
a: 90 µM

q: Please give the measured CC50 at 72 h for this compound: C#CCON=C(C)c1c(C)cc(=O)n(O)c1O
a: 81.7 µM

q: May I ask what CC50 at 72 h has been recorded for CC(=NOC(CNC(=O)c1ccco1)c1cc(F)cc(F)c1)c1c(C)cc(=O)n(O)c1O (centres unmarked) ?
a: 100 µM

q: # query: CC50 at 72 h of entry COC(=O)c1ccc(CON=C(C)c2c(C)cc(=O)n(O)c2O)c(F)c1
a: 90.2 µM

q: Item under review: C#CCCON=C(C)c1c(C)cc(=O)n(O)c1O . Reported CC50 at 72 h?
a: 57.5 µM

q: Would you kindly share the measured CC50 at 72 h for CC(=NOCc1ccc([N+](=O)[O-])cc1)c1c(C)cc(=O)n(O)c1O ?
a: 99.6 µM

q: Find the recorded CC50 at 72 h belonging to COC(=O)c1ccc(CON=C(C)c2c(C)cc(=O)n(O)c2O)c(C#N)c1 and report it.
a: 91.9 µM

q: Recorded CC50 at 72 h for COC(=O)c1ccc(CON=C(C)c2c(C)cc(=O)n(O)c2O)cc1 , please?
a: 100 µM

q: Entry CSc1ccc(CON=C(C)c2c(C)cc(=O)n(O)c2O)cc1 : reported CC50 at 72 h = ?
a: 100 µM

q: Item under review: CC(=NOC(C)c1ccccc1)c1c(C)cc(=O)n(O)c1O (centres unmarked) . Reported CC50 at 72 h?
a: 100 µM

q: I am curious: what CC50 at 72 h value has been reported for CC(=NOC(c1cc(F)cc(F)c1)c1ccccn1)c1c(C)cc(=O)n(O)c1O (centres unmarked) ?
a: 47.1 µM

q: What does the data say about its CC50 at 72 h? Entry: C#CCCCON=C(C)c1c(C)cc(=O)n(O)c1O
a: 53.6 µM

q: Please look up its CC50 at 72 h: COC(=O)c1cc(Cl)c(CON=C(C)c2c(C)cc(=O)n(O)c2O)c(Cl)c1
a: 100 µM

q: If you can, please state the reported CC50 at 72 h value of CC(=NOCc1ccc(O)cc1)c1c(C)cc(=O)n(O)c1O .
a: 91.1 µM

q: What value of CC50 at 72 h has been recorded for this entry: CC(=NOC(CNC(=O)c1nccs1)c1cc(F)cc(F)c1)c1c(C)cc(=O)n(O)c1O (centres unmarked)
a: 100 µM

q: Need CC50 at 72 h of CC(=NOC(CNC(=O)c1ccc2ccccc2n1)c1cc(F)cc(F)c1)c1c(C)cc(=O)n(O)c1O (centres unmarked) , thanks.
a: 99.9 µM

* * *

Answer each item with its documented melting point.

q: Item CC(=NOC(C)c1ccccc1)c1c(C)cc(=O)n(O)c1O (stereo not drawn) has what recorded melting point?
a: 130 to 132 °C

q: melting point for C#CCON=C(C)c1c(C)cc(=O)n(O)c1O ?
a: 78 to 80 °C (dec.)

q: Which measured melting point value corresponds to COC(=O)c1ccc(CO/N=C(\C)C2C(=O)NC(=O)NC2=O)cc1 ?
a: > 250 °C

q: Param item = Nc1cc(Oc2cc(Cl)c(Cl)cc2Cl)nc(N)[n+]1[O-] ; retrieve measured melting point.
a: 135 °C

q: Quick one: melting point for CC(=NOC(CNC(=O)c1ccco1)c1cc(F)cc(F)c1)c1c(C)cc(=O)n(O)c1O (stereo not drawn) ?
a: 118 to 120 °C (dec.)

q: So what does the record say about melting point for COC(=O)c1cc(Cl)c(CON=C(C)c2c(C)cc(=O)n(O)c2O)c(Cl)c1 ?
a: 117 to 119 °C (dec.)

q: Recorded melting point of CSc1ccc(CON=C(C)c2c(C)cc(=O)n(O)c2O)cc1 , please.
a: 110 to 115 °C (dec.)

q: Could you share which melting point value was measured for COC(=O)c1ccc(CON=C(C)c2c(C)cc(=O)n(O)c2O)cc1 ?
a: 120 °C (dec.)

q: melting point for Nc1cc(Oc2ccc(Cl)cc2Cl)nc(N)[n+]1[O-] ?
a: 160 °C

* * *

Endpoint name: melting point

q: Entry COC(=O)c1ccc(CON=C(C)c2c(C)cc(=O)n(O)c2O)c(F)c1 has what melting point?
a: 130 °C (dec.)

q: Which melting point is listed for C#CCCCON=C(C)c1c(C)cc(=O)n(O)c1O ?
a: 93 to 95 °C (dec.)

q: Look up melting point: CC(=NOC(c1cc(F)cc(F)c1)c1ccccn1)c1c(C)cc(=O)n(O)c1O (stereo not drawn)
a: 102 to 104 °C (dec.)

q: Would you kindly share the measured melting point for COc1ccc(COc2cc(N)[n+]([O-])c(N)n2)cc1 ?
a: > 250 °C

q: Endpoint output: melting point of COC(=O)c1ccc(CON=C(C)c2c(C)cc(=O)n(O)c2O)c(C#N)c1 . Value?
a: 115 °C

q: Which melting point is reported for this molecule? C#CCCON=C(C)c1c(C)cc(=O)n(O)c1O
a: 86 to 89 °C (dec.)

q: melting point for CC(=NOCc1ccc([N+](=O)[O-])cc1)c1c(C)cc(=O)n(O)c1O ?
a: 105 to 107 °C

q: Entry CC(=NOC(CNC(=O)c1ccc2ccccc2n1)c1cc(F)cc(F)c1)c1c(C)cc(=O)n(O)c1O (stereo not drawn) : reported melting point = ?
a: 108 to 110 °C (dec.)

q: Which value of melting point has been reported for CC(=NOCc1ccc(O)cc1)c1c(C)cc(=O)n(O)c1O in the records?
a: 98 to 100 °C (dec.)

* * *

tested on: HBV replication; experiment: qPCR HBV replication inhibition assay in HepDES19 cells; assay type: cell-based, Hepatitis B virus (HBV) genotype D; details: Hepatitis B virus, 72 h, (+) DNA qPCR, read-out: EC50
Could you please report measured pEC50 for the items listed next?
Scale note: pEC50 = -log10(concentration in M).

q: Could you share which pEC50 value was measured for C#CCCCON=C(C)c1c(C)cc(=O)n(O)c1O [Compound 40] ?
a: 5.60

q: # lookup: pEC50 of COC(=O)c1ccc(CON=C(C)c2c(C)cc(=O)n(O)c2O)c(F)c1 [Compound 45]
a: 5.49

q: If you can, please state the reported pEC50 value of COC(=O)c1ccc(CON=C(C)c2c(C)cc(=O)n(O)c2O)cc1 [Compound 47] .
a: 5.96

q: What does the data say about its pEC50? Entry: CC(=NOCc1ccc(O)cc1)c1c(C)cc(=O)n(O)c1O [Compound 39]
a: 5.28

q: Data request, read-out pEC50, for CC(=NOC(CNC(=O)c1nccs1)c1cc(F)cc(F)c1)c1c(C)cc(=O)n(O)c1O (stereo not drawn) [Compound 50]
a: 5.40

q: Please report the recorded pEC50 for COC(=O)c1ccc(C(C)ON=C(C)c2c(C)cc(=O)n(O)c2O)cc1 (stereo not drawn) [Compound 34] .
a: 5.20

q: Value lookup for pEC50; key = CC(=NOC(CNC(=O)c1ccc2ccccc2n1)c1cc(F)cc(F)c1)c1c(C)cc(=O)n(O)c1O (stereo not drawn) [Compound 49]
a: 5.46

q: Requested read-out: pEC50. Entry: CC(=NOC(C)c1ccccc1)c1c(C)cc(=O)n(O)c1O (stereo not drawn) [Compound 46]
a: 5.51

* * *

experiment: Solubility limit assay (turbidity, DMEM-F12 + 10% FBS); type: physicochemical; settings: DMEM-F12 without phenol red with 10% FBS, plasma or biological fluid, kinetic from dmso stock; pH 7.4, DMEM-F12 with 10% FBS, 1% DMSO, upper limit 200 µM
Endpoint name: solubility (µM)
Just the number please, in µM, no unit attached.

q: State the recorded solubility for this entry: Nc1cc(Oc2ccc(Cl)cc2Cl)nc(N)[n+]1[O-]
a: 100

q: Field request: solubility | item: COC(=O)c1ccc(C(C)ON=C(C)c2c(C)cc(=O)n(O)c2O)cc1 (stereo not drawn)
a: 50
